IC50 values for the molecules below.
- Experimental System: Cholinesterase (Homo sapiens)
- Sequence (P06276 whole entry): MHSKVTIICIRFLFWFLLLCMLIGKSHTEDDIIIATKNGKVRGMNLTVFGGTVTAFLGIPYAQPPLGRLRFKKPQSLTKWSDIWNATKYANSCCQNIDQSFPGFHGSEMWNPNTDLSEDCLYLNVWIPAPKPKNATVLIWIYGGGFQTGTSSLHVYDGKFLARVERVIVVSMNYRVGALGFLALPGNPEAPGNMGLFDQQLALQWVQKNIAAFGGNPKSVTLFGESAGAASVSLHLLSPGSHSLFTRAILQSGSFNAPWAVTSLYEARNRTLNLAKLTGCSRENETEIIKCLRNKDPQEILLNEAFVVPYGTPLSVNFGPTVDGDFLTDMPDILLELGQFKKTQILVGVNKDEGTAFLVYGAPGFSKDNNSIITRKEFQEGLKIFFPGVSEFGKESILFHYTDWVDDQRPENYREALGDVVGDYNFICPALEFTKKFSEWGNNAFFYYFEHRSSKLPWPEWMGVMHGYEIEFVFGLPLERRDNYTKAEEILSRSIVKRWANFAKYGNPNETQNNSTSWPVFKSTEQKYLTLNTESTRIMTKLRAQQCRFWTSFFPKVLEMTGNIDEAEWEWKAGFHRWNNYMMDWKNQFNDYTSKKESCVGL
- Procedure Summary: Inhibition of human serum BuChe using butyrylthiocholine iodide as substrate incubated for 25 mins by DTNB reagent based Ellman's method
Report the figure in µM without appending any unit label.

Consider the reported IC50 for these molecules:
Which IC50 is reported for this molecule? COc1ccc2[nH]cc(CCNC(=O)Cn3cc(CN4CC[C@@]56C=C[C@H](O)C[C@@H]5Oc5c(OC)ccc(c56)C4)nn3)c2c1
8.85

Which IC50 value belongs to COc1ccc2c3c1O[C@H]1C[C@@H](O)C=C[C@@]31CCN(CCCCc1cn(CCCCC(=O)NCCc3c[nH]c4ccccc34)nn1)C2 ?
1.29

IC50 for COc1ccc2[nH]cc(CCNC(=O)CCCCn3cc(CCCCN4CC[C@@]56C=C[C@H](O)C[C@@H]5Oc5c(OC)ccc(c56)C4)nn3)c2c1 ?
0.963

Below: the item to evaluate.
Which IC50 value is on record for COc1ccc2[nH]cc(CCNC(=O)Cn3cc(CN4CCc5cc(OC)c(OC)cc5C4CCCN4C(=O)c5ccccc5C4=O)nn3)c2c1 (centres undefined) ?
26.2
